Biological target: Avi-KRAS G12V (1-169) GppNHp/RAF1 RBD-3xFLAG (52-151) (Homo sapiens, UniProt P01116, G12V)
Construct: Avi-KRAS G12V (1-169)
Sequence (P01116 1-169 isoform P01116-2 G12V): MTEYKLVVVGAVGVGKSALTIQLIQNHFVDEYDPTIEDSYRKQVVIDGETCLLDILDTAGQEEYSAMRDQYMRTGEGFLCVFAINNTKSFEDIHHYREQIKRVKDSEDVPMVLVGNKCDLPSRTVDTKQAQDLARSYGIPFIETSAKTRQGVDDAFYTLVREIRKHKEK
Experiment: Raf1-KRAS G12V-GppNHP disruption HTRF assay (Biological Example 1)
Format: binding
Conditions: KRAS G12V, GppNHp-loaded; class symbols
Protocol: A protein:protein interaction (PPI) Homogeneous Time Resolved Fluorescence (HTRF) assay was used to determine the effectiveness of compounds of the present disclosure in disrupting KRAS protein and effector RAF1 binding. The assay buffer included: 50 mM Tris pH 7.5, 100 mM NaCl, 5 mM MgCl2, 0.1% BSA, 0.01% Tween, and 10% DMSO. The bead buffer included: 50 mM Tris pH 7.5, and 0.01% Tween 20. […] Data was reported as percentage of activity, with DMSO as 100%. Data was plotted and analyzed using Prism 8.
pIC50: −log10 of the molar value.
MEASUREMENT_NAME: pIC50

| COMPOUND | pIC50 |
| --- | --- |
| CCN(c1nc(OC[C@@]23CCCN2C[C@H](F)C3)nc2c(F)c(-c3ccc(F)c4sc(N)c(C#N)c34)c(C(F)(F)F)cc12)[C@@H]1CCN(C(=O)[C@@H](C)OC)[C@@H]1C (atropisomer, axis not shown) [Compound 807] | > 7.00 |

(Q) Form field: pIC50 recorded for CCN(c1nc(OC[C@@]23CCCN2C[C@H](F)C3)nc2c(F)c(-c3ccc(F)c4sc(N)c(C#N)c34)c(C(F)(F)F)cc12)[C@H]1CCN(C(=O)OC2CCOCC2)C1 (atropisomer, axis not shown) [Compound 684] with Avi-KRAS G12V (1-169) GppNHp/RAF1 RBD-3xFLAG (52-151) (Homo sapiens, UniProt P01116, G12V) (enter value)
(A) > 7.00
